All figures here come from PubChem BioAssay AID1159580.

- assay.name: chemical genetic growth profiling, strain panel (AID 1159580);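 also: tested at 20 µM; growth read once vehicle control cultures reached saturation at 30 °C; 1 = growth at the plate median or of vehicle wells; lower values mean less growth of the strain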
- study.conditions: S. cerevisiae deletion strains, growth OD, locus YLR102C, strain apc9, hits give low values
About 2,000 (36%) of roughly 5,500 compounds were called active. About 18% were inconclusive and are not listed. Some of the results follow.
# reported normalized growth; entries follow
property.measured: normalized growth

{"compound": "CC1=C2C(O)C(=O)OC3CC4C(C)(C)C(=O)C=C[C@]4(C)C(CC1)[C@]23C (some centres undefined)", "property.measured": "normalized growth", "reported.measurement": 1.02}
{"compound": "COc1ccccc1N1CCN(CCCNc2cc(=O)n(C)c(=O)n2C)CC1", "property.measured": "normalized growth", "reported.measurement": 0.988}
{"compound": "O=c1c(O)cc([C@H]2Oc3cc(O)cc(O)c3C[C@H]2O)cc2c([C@H]3Oc4cc(O)cc(O)c4C[C@H]3O)cc(O)c(O)c12", "property.measured": "normalized growth", "reported.measurement": 1.02}
{"compound": "O=c1c(O)cccc2c(C3Oc4cc(O)cc(O)c4CC3O)cc(O)c(O)c12 (centres undefined)", "property.measured": "normalized growth", "reported.measurement": 0.92}
{"compound": "CC[C@@]1(O)C(=O)OCc2c1cc1n(c2=O)Cc2cc3ccccc3nc2-1", "property.measured": "normalized growth", "reported.measurement": 0.913}
{"compound": "COc1nc(NC(C)C)nc(NC(C)C)n1", "property.measured": "normalized growth", "reported.measurement": 1.02}
{"compound": "C[C@]12CCC(=O)C=C1CCc1ccc(O)cc12", "property.measured": "normalized growth", "reported.measurement": 0.994}
{"compound": "CCc1ccc2c(O)c3c(cc2c1C(=O)OC)C(=O)c1c(O)ccc(O)c1C3=O", "property.measured": "normalized growth", "reported.measurement": 0.999}
{"compound": "CN(C)C(=O)C(CCN1CCC(O)(c2ccc(Cl)cc2)CC1)(c1ccccc1)c1ccccc1", "property.measured": "normalized growth", "reported.measurement": 1.01}
{"compound": "NCCCN", "property.measured": "normalized growth", "reported.measurement": 0.988}
{"compound": "N#Cc1c(Cl)cccc1Cl", "property.measured": "normalized growth", "reported.measurement": 1.01}
{"compound": "CC[C@@]1(O)C(=O)OCc2c1cc1n(c2=O)Cc2cc3cc(O)ccc3nc2-1", "property.measured": "normalized growth", "reported.measurement": 0.992}
{"compound": "CSc1nc(NC(C)C)nc(NC(C)C)n1", "property.measured": "normalized growth", "reported.measurement": 1}
{"compound": "CC(=O)O[C@@H]1CC2C(C)(CC[C@H](O)C2(C)C)C2CC[C@]3(C)C(=CC(=O)O[C@H]3c3ccoc3)C21C (some centres undefined)", "property.measured": "normalized growth", "reported.measurement": 0.99}
{"compound": "C[C@H]1[C@H](C)CC[C@]2(C(=O)O)CC[C@]3(C)C(=CCC4[C@@]5(C)C[C@@H](O)[C@H](O)[C@@](C)(CO)C5[C@H](O)C[C@]43C)[C@H]12 (some centres undefined)", "property.measured": "normalized growth", "reported.measurement": 0.976}
{"compound": "NC(N)=Nc1ccc(Cl)cc1", "property.measured": "normalized growth", "reported.measurement": 0.998}
{"compound": "COc1cccc2c1CCC1=CC(=O)CC[C@@]12C", "property.measured": "normalized growth", "reported.measurement": 0.993}
{"compound": "NC[C@@H]1O[C@H](O[C@@H]2[C@@H](CO)OC(O[C@@H]3[C@@H](O)[C@H](N)C[C@H](N)[C@H]3O[C@H]3O[C@H](CO)[C@@H](O)[C@H](O)[C@H]3N)[C@@H]2O)[C@H](N)[C@@H](O)[C@@H]1O (some centres undefined)", "property.measured": "normalized growth", "reported.measurement": 0.989}
{"compound": "C[C@@H]1CC[C@@]23CCC4(C)[C@@](C=CC5[C@@]6(C)CCC(=O)C(C)(C)C6CC[C@]54C)(OC2=O)C3[C@H]1C (some centres undefined)", "property.measured": "normalized growth", "reported.measurement": 1.01}

---

- assay.name: chemical genetic growth profiling, strain panel (AID 1159580);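 also: tested at 20 µM; growth read once vehicle control cultures reached saturation at 30 °C; 1 = growth at the plate median or of vehicle wells; lower values mean less growth of the strain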
- study.conditions: S. cerevisiae deletion strains, growth OD, locus YAL021C, strain ccr4, hits give low values
Among all 5,500 compounds or so, about 2,000 (36%) were called active. Not shown: some 18% with an inconclusive outcome. The list shows a part of the results.
Documented normalized growth across a set of compounds

{"compound": "CSc1nc(NC(C)C)nc(NC(C)C)n1", "normalized growth": "0.969 (inactive)"}
{"compound": "C[C@@H](CO)NC(=O)C1C=C2c3cccc4[nH]cc(c34)C[C@H]2N(C)C1 (stereo partly drawn)", "normalized growth": "1.01 (inactive)"}
{"compound": "CNC[C@H](O)c1cccc(O)c1", "normalized growth": "0.979 (inactive)"}
{"compound": "CC(C)Nc1nc(Cl)nc(NC(C)C)n1", "normalized growth": "1 (inactive)"}
{"compound": "NC(=O)c1ccccc1O", "normalized growth": "0.988 (inactive)"}
{"compound": "O=C(/C=C(\\O)c1ccccc1)c1ccccc1O", "normalized growth": "0.843 (active)"}
{"compound": "O=C(O)c1ccccc1O", "normalized growth": "0.985 (inactive)"}
{"compound": "O=C(Oc1cccc2cccnc12)c1ccccc1", "normalized growth": "0.962 (inactive)"}

---

- assay.name: chemical genetic growth profiling, strain panel (AID 1159580);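 also: tested at 20 µM; growth read once vehicle control cultures reached saturation at 30 °C; 1 = growth at the plate median or of vehicle wells; lower values mean less growth of the strain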
- study.conditions: S. cerevisiae deletion strains, growth OD, locus YNL020C, strain ARK1, hits give low values
In all, about 5,500 compounds went through this assay and about 2,000 (36%) were called active. Another 18% or so got no clear call; they are omitted. The list shows a part of the results.
The label is true (1) for normalized growth below 0.9 and false (0) for normalized growth equal to or exceeding 0.9.

{"compound": "CC(C)/C(=N/OC(=O)c1ccc([N+](=O)[O-])cc1)c1ccccc1", "label.class": "true (1)"}
{"compound": "CC(C)(C)NC(=S)N/N=C\\c1cc(Br)c(O)c(Br)c1", "label.class": "false (0)"}
{"compound": "C/C(=N/NC(N)=S)c1csc(-c2ccccc2)n1", "label.class": "true (1)"}
{"compound": "O=S(=O)(c1cc(Cl)ccc1Cl)N1CCc2ccccc2C1", "label.class": "false (0)"}
{"compound": "CN1/C(=C/C=C/c2ccc3ccccc3[n+]2C)C=Cc2ccccc21", "label.class": "true (1)"}
{"compound": "COc1ccccc1N1CCN(C(=O)C(C)c2ccc(CC(C)C)cc2)CC1 (configuration not stated)", "label.class": "false (0)"}
{"compound": "O=c1cc(CSc2ccc(Cl)cc2)c2ccc(O)cc2o1", "label.class": "true (1)"}
{"compound": "CN(C)/C=C1\\CSc2ccc(Cl)cc2C1=O", "label.class": "true (1)"}
{"compound": "O=C(Nc1ccc(SC(F)(F)F)cc1)Nc1ccc(Oc2cccc(C(F)(F)F)c2)nc1", "label.class": "false (0)"}
{"compound": "COc1ccc(N=C2SCC(c3ccc(C)cc3)=NN2CCO)cc1", "label.class": "false (0)"}
{"compound": "N#Cc1nccnc1N1CCN(C(=O)Nc2cc(Cl)cc(Cl)c2)CC1", "label.class": "false (0)"}
{"compound": "O=C(OCc1ccccc1Br)c1cc([N+](=O)[O-])cc([N+](=O)[O-])c1", "label.class": "true (1)"}
{"compound": "O=C(NC(=S)NNc1ncc(C(F)(F)F)cc1Cl)c1cccs1", "label.class": "true (1)"}
{"compound": "N#Cc1ccc2[nH]cc(CCN(Cc3ccccc3)Cc3ccccc3)c2c1", "label.class": "false (0)"}
{"compound": "O=C1/C(=C/c2c[nH]c3ccccc23)CSc2ccccc21", "label.class": "false (0)"}
{"compound": "N/C(=N/OC(=O)c1cnn(-c2ccc([N+](=O)[O-])cc2)c1C(F)(F)F)c1ccc(Cl)cc1", "label.class": "false (0)"}
{"compound": "Cc1ccc(OS(=O)(=O)c2c(Cl)sc(Cl)c2Br)c([N+](=O)[O-])n1", "label.class": "false (0)"}
{"compound": "O=c1[nH][nH]c(=O)n1CCCc1cc2cccc3ccc4cccc1c4c32", "label.class": "false (0)"}
{"compound": "N#C/C(N=Cc1cc(Cl)cc(Cl)c1O)=C(\\C#N)N=Cc1cc(Cl)cc(Cl)c1O", "label.class": "true (1)"}
{"compound": "O=C1Nc2ccccc2/C1=C\\c1c[nH]c2ccccc12", "label.class": "true (1)"}

---

- assay.name: chemical genetic growth profiling, strain panel (AID 1159580);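 also: tested at 20 µM; growth read once vehicle control cultures reached saturation at 30 °C; 1 = growth at the plate median or of vehicle wells; lower values mean less growth of the strain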
- study.conditions: S. cerevisiae deletion strains, growth OD, locus YML120C, strain ndi1, hits give low values
The whole screen tested about 5,500 compounds, of which about 2,000 (36%) were called active. Inconclusive results (about 18%) are left out. Some of the results follow.
property.measured: normalized growth

{"molecule": "COc1ccc(-c2cc(=O)c3c(O)cc(O)cc3o2)cc1", "reported.measurement": 0.952}
{"molecule": "CC1=C2C(O)C(=O)OC3CC4C(C)(C)C(=O)C=C[C@]4(C)C(CC1)[C@]23C (some centres not stated)", "reported.measurement": 1}
{"molecule": "CC1CCCC(C)N1NC(=O)c1ccc(Cl)c(S(N)(=O)=O)c1 (configuration not stated)", "reported.measurement": 1.01}
{"molecule": "COc1cc(-c2cc(=O)c3c(O)c(OC)c(OC)c(OC)c3o2)cc(OC)c1OC", "reported.measurement": 1}
{"molecule": "CN(C)CC[C@H](c1ccc(Cl)cc1)c1ccccn1", "reported.measurement": 1.01}
{"molecule": "CC(C)=CC1C(CO)C1(C)C (configuration not stated)", "reported.measurement": 1.02}
{"molecule": "COC(=O)NC(=S)Nc1ccccc1NC(=S)NC(=O)OC", "reported.measurement": 0.97}
{"molecule": "CC1Cc2ccccc2N1NC(=O)c1ccc(Cl)c(S(N)(=O)=O)c1 (configuration not stated)", "reported.measurement": 0.987}
{"molecule": "COc1cccc2c1CCC1=CC(=O)CC[C@@]12C", "reported.measurement": 0.988}
{"molecule": "Cc1ccccc1N1C(=O)c2cc(S(N)(=O)=O)c(Cl)cc2NC1C (configuration not stated)", "reported.measurement": 1}
{"molecule": "COP(N)(=O)SC (configuration not stated)", "reported.measurement": 1}
{"molecule": "Cc1c(OCC(F)(F)F)ccnc1CS(=O)c1nc2ccccc2[nH]1 (configuration not stated)", "reported.measurement": 1.02}
